Read-out: Cytochrome P450 (CYP1A1), CYP1A1 (gene 1543)
assay_summary: LTEA_HepaRG_CYP1A1: Life Technologies and Expression Analysis (LTEA) Assay for Cytochrome P450 (CYP1A1) using HepaRG (AID 2283454)
measurement_setup: mRNA level, 48 h; actives raise or lower the signal
Calls of active or inactive are those of the source. Rule for the calls: active = hit-call score of the fitted dose curve at least 0.9, where 1 is the maximum; inactive = score below 0.9.
Outcomes: active, inactive

[
  {
    "molecule": "O=C(NS(=O)(=O)/C=C/c1cccs1)c1ccc(F)cc1Br",
    "assigned_category": "active"
  },
  {
    "molecule": "C=CCCCCCCCCCCCC",
    "assigned_category": "inactive"
  },
  {
    "molecule": "O=C(N[C@@H](c1ccccc1)[C@@H]1CCCCN1)c1cccc(C(F)(F)F)c1Cl",
    "assigned_category": "inactive"
  },
  {
    "molecule": "CN(C)C(=O)NC1(c2ccccc2)CCN(CC[C@@]2(c3ccc(F)c(F)c3)CN(C(=O)c3ccccc3)CCO2)CC1",
    "assigned_category": "active"
  },
  {
    "molecule": "O=NO",
    "assigned_category": "inactive"
  },
  {
    "molecule": "C#CC(O)C(CC)CCCC (stereo not drawn)",
    "assigned_category": "active"
  },
  {
    "molecule": "Cc1cn([C@H]2C=C[C@@H](CO)O2)c(=O)[nH]c1=O",
    "assigned_category": "active"
  },
  {
    "molecule": "CC(=O)CC(c1ccccc1)c1c(O)c2ccccc2oc1=O (stereo not drawn)",
    "assigned_category": "inactive"
  },
  {
    "molecule": "COC(=O)CCCC(=O)OC",
    "assigned_category": "inactive"
  },
  {
    "molecule": "CCCCC(CC)CO (stereo not drawn)",
    "assigned_category": "active"
  },
  {
    "molecule": "O=C1O[C@H]([C@H](O)CO)C(O)=C1O",
    "assigned_category": "active"
  },
  {
    "molecule": "NCCOCCOCCN",
    "assigned_category": "active"
  },
  {
    "molecule": "CC(C)NCC(O)c1ccc(O)c(O)c1 (stereo not drawn)",
    "assigned_category": "active"
  }
]

###

assayed_target: Nuclear receptor subfamily 4 group A member 2 (Homo sapiens) (UniProt P43354)
Sequence (P43354 whole entry, looked up): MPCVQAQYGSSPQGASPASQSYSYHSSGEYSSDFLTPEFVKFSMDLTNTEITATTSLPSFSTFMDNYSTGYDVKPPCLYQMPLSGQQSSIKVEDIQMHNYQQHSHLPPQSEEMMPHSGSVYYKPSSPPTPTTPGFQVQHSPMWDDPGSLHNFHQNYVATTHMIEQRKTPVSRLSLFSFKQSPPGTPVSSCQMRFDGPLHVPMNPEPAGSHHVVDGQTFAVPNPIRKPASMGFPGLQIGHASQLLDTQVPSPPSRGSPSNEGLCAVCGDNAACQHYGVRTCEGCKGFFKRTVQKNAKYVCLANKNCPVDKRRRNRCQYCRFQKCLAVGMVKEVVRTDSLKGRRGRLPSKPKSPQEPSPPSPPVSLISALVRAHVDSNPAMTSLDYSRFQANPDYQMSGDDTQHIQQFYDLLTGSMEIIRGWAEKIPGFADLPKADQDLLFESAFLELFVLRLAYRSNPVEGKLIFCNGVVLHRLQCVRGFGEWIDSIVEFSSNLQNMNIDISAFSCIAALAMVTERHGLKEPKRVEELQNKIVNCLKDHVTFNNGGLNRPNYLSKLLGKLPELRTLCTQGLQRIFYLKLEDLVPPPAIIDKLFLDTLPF
assay_summary: ATG_NURR1_TRANS: Attagene TRANS-FACTORIAL HepG2 Assay for human Nuclear Receptor Related Protein 1 (NURR1) (AID 2282985)
measurement_setup: HepG2 Attagene TRANS reporter, mRNA readout
Records with an inconclusive call do not appear. The source made the active and inactive calls. How the source made its calls: active means hit-call score of the fitted dose curve at least 0.9, where 1 is the maximum; inconclusive means response in the unintended direction; inactive means score below 0.9.
Classes used: true for active, false for inactive

[
  {
    "compound": "O=NO",
    "assigned_category": "false"
  },
  {
    "compound": "Oc1ccc(O)cc1",
    "assigned_category": "false"
  },
  {
    "compound": "COC(=O)CCCC(=O)OC",
    "assigned_category": "false"
  },
  {
    "compound": "CC(=O)OC1CC(C)OC(C)O1 (stereo not given)",
    "assigned_category": "false"
  },
  {
    "compound": "COc1ccc(OC(F)(F)F)cc1CN[C@H]1CCCN[C@H]1c1ccccc1",
    "assigned_category": "false"
  },
  {
    "compound": "CN(C)CCCN1c2ccccc2Sc2ccc(Cl)cc21",
    "assigned_category": "false"
  },
  {
    "compound": "O=[Si]=O",
    "assigned_category": "false"
  },
  {
    "compound": "CC(C)(C)c1ccccc1",
    "assigned_category": "false"
  },
  {
    "compound": "O=C(Oc1ccccc1)c1cccc(C(=O)Oc2ccccc2)c1",
    "assigned_category": "false"
  },
  {
    "compound": "CC(=O)[C@@]1(O)CC[C@H]2[C@@H]3CCC4=CC(=O)CC[C@]4(C)[C@H]3CC[C@@]21C",
    "assigned_category": "false"
  },
  {
    "compound": "O=C1CCCCC1",
    "assigned_category": "false"
  },
  {
    "compound": "NC=O",
    "assigned_category": "false"
  },
  {
    "compound": "CC(C)NCC(O)c1ccc(O)c(O)c1 (stereo not given)",
    "assigned_category": "false"
  },
  {
    "compound": "O=C1O[C@H]([C@H](O)CO)C(O)=C1O",
    "assigned_category": "false"
  },
  {
    "compound": "Cc1cc(Cc2ccc(N)c(C)c2)ccc1N",
    "assigned_category": "false"
  },
  {
    "compound": "CCCC[C@H]1CN(CC2CCOCC2)C(=O)OC12CCN(C1(C)CCN(C(=O)c3c(C)ncnc3C)CC1)CC2",
    "assigned_category": "false"
  },
  {
    "compound": "Cc1ccc(-c2cc(C(F)(F)F)nn2-c2ccc(S(N)(=O)=O)cc2)cc1",
    "assigned_category": "false"
  },
  {
    "compound": "O=C1NC(=O)C(c2ccccc2)(c2ccccc2)N1",
    "assigned_category": "false"
  },
  {
    "compound": "CC(C)OC(=O)C(C)(C)Oc1ccc(C(=O)c2ccc(Cl)cc2)cc1",
    "assigned_category": "true"
  },
  {
    "compound": "CC(=O)O",
    "assigned_category": "false"
  },
  {
    "compound": "O=C(O)CN(CC(=O)O)CC(=O)O",
    "assigned_category": "false"
  },
  {
    "compound": "Cn1cnc2c1c(=O)[nH]c(=O)n2C",
    "assigned_category": "false"
  },
  {
    "compound": "NCCOCCOCCN",
    "assigned_category": "false"
  },
  {
    "compound": "C#CC(O)C(CC)CCCC (stereo not given)",
    "assigned_category": "false"
  },
  {
    "compound": "CCCCCCCCCCCCCCOS(=O)(=O)O",
    "assigned_category": "false"
  },
  {
    "compound": "O=C(O)c1cccnc1",
    "assigned_category": "false"
  },
  {
    "compound": "CC(=O)O[C@]1(C(C)=O)CC[C@H]2[C@@H]3C=C(Cl)C4=CC(=O)[C@@H]5C[C@@H]5[C@]4(C)[C@H]3CC[C@@]21C",
    "assigned_category": "false"
  },
  {
    "compound": "C=CCCCCCCCCCCCC",
    "assigned_category": "false"
  },
  {
    "compound": "CC(=O)CC(c1ccccc1)c1c(O)c2ccccc2oc1=O (stereo not given)",
    "assigned_category": "false"
  },
  {
    "compound": "CCCC(=O)O",
    "assigned_category": "false"
  }
]

###

assay_summary: NVS_IC_rCaBTZCHL: NovaScreen (NVS) Ion Channel Assay for Calcium Channel, Type L, Benzothiazepine Site (CaBTZCHL) (AID 2283337)
Records with an inconclusive call do not appear. Activity calls are given as the source filed them. How the source made its calls: active means hit-call score of the fitted dose curve at least 0.9, where 1 is the maximum; inconclusive means response in the unintended direction; inactive means score below 0.9.
Recorded AC50, one value per entry.
measured_metric: AC50

[
  {
    "substance_smiles": "CSc1ccc(Oc2ccc(S(N)(=O)=O)cc2CN(C)C)cc1C",
    "measured_metric": "AC50",
    "observed_result": "10.1 µM (active)"
  },
  {
    "substance_smiles": "CCc1nc(N)nc(N)c1-c1ccc(Cl)cc1",
    "measured_metric": "AC50",
    "observed_result": "8.32 µM (active)"
  },
  {
    "substance_smiles": "CN(C)CCCN1c2ccccc2Sc2ccc(Cl)cc21",
    "measured_metric": "AC50",
    "observed_result": "2.52 µM (active)"
  },
  {
    "substance_smiles": "O=C(N[C@@H](c1ccccc1)[C@@H]1CCCCN1)c1cccc(C(F)(F)F)c1Cl",
    "measured_metric": "AC50",
    "observed_result": "0.967 µM (active)"
  },
  {
    "substance_smiles": "CN(C)C(=O)NC1(c2ccccc2)CCN(CCC[C@]2(c3ccc(Cl)c(Cl)c3)CCCN(C(=O)c3ccccc3)C2)CC1",
    "measured_metric": "AC50",
    "observed_result": "1.24 µM (active)"
  },
  {
    "substance_smiles": "CN(C)C(=O)NC1(c2ccccc2)CCN(CC[C@@]2(c3ccc(F)c(F)c3)CN(C(=O)c3ccccc3)CCO2)CC1",
    "measured_metric": "AC50",
    "observed_result": "2.2 µM (active)"
  },
  {
    "substance_smiles": "CCN(CC)CCOc1ccc(C(=C(Cl)c2ccccc2)c2ccccc2)cc1",
    "measured_metric": "AC50",
    "observed_result": "1.02 µM (active)"
  }
]

###

assay_summary: Tanguay_ZF_120hpf_SNOU_legacy: (Legacy) Oregon State University Tanguay Lab 120 Hour Post-fertilization zebrafish Assay for Snout Malformation (AID 2283637)
Records with an inconclusive call do not appear. Calls of active or inactive are those of the source. The calls were made as follows: active = hit-call score of the fitted dose curve at least 0.9, where 1 is the maximum; inconclusive = response in the unintended direction; inactive = score below 0.9.
Outcomes: active, inactive

[
  {
    "molecule": "CCCCOC(=O)CCCCC(=O)OCCCC",
    "assigned_category": "inactive"
  },
  {
    "molecule": "O=C(O)c1[nH]n(-c2ccc(S(=O)(=O)O)cc2)c(=O)c1N=Nc1ccc(S(=O)(=O)O)cc1",
    "assigned_category": "inactive"
  },
  {
    "molecule": "Nc1nc(=S)c2[nH]cnc2[nH]1",
    "assigned_category": "inactive"
  },
  {
    "molecule": "CN(C)C(=O)NC1(c2ccccc2)CCN(CCC[C@]2(c3ccc(Cl)c(Cl)c3)CCCN(C(=O)c3ccccc3)C2)CC1",
    "assigned_category": "inactive"
  },
  {
    "molecule": "C#CC(O)C(CC)CCCC (stereo not given)",
    "assigned_category": "inactive"
  },
  {
    "molecule": "COC(=O)[C@H]1[C@H]2C[C@@H]3c4[nH]c5cc(OC)ccc5c4CCN3C[C@H]2C[C@@H](OC(=O)c2cc(OC)c(OC)c(OC)c2)[C@@H]1OC",
    "assigned_category": "inactive"
  },
  {
    "molecule": "CC(COCC(C)OC(=O)c1ccccc1)OC(=O)c1ccccc1 (stereo not given)",
    "assigned_category": "inactive"
  },
  {
    "molecule": "CC(=O)S[C@H](C(=O)N[C@H]1Cc2ccccc2[C@H]2CCC[C@@H](C(=O)O)N2C1=O)C(C)C",
    "assigned_category": "inactive"
  },
  {
    "molecule": "O=C(O)CN(CC(=O)O)CC(=O)O",
    "assigned_category": "inactive"
  },
  {
    "molecule": "CCCCCCCCCCCCCCOS(=O)(=O)O",
    "assigned_category": "active"
  }
]
